The values you see were collected from ChEMBL document CHEMBL2390926.

Tested on: MV4-11
assay.details: Cytotoxicity against human MV4-11 cells after 72 hrs by plate reader analysis
Assay type: functional, cell-based
protocol.conditions: MV4-11, 72 h
Values of EC50 strictly less than 3 µM map to 1, and values of at least 3 µM map to 0.

Cc1ccc(-c2cc(NC(=O)c3ccc(F)cc3)[nH]n2)cc1	1
Fc1ccc(-c2n[nH]cc2-c2ccncc2)cc1Cl	1
Cc1ccc(-n2cnc3cc(Nc4nnc(C)c5ccccc45)ccc32)cc1	0
COc1ccc(C(=O)Nc2cc(-c3ccccc3)[nH]n2)cc1	1

With those in mind, consider the next compound.
Decide: EC50 of Cc1cccc(C(=O)Nc2cc(-c3ccc(F)cc3)n[nH]2)c1 strictly below 3 µM?
1
